- tgt: human serotonin transporter (Homo sapiens, UniProt P31645)
- Construct: expressed in transfected cells
- Sequence (P31645 whole entry): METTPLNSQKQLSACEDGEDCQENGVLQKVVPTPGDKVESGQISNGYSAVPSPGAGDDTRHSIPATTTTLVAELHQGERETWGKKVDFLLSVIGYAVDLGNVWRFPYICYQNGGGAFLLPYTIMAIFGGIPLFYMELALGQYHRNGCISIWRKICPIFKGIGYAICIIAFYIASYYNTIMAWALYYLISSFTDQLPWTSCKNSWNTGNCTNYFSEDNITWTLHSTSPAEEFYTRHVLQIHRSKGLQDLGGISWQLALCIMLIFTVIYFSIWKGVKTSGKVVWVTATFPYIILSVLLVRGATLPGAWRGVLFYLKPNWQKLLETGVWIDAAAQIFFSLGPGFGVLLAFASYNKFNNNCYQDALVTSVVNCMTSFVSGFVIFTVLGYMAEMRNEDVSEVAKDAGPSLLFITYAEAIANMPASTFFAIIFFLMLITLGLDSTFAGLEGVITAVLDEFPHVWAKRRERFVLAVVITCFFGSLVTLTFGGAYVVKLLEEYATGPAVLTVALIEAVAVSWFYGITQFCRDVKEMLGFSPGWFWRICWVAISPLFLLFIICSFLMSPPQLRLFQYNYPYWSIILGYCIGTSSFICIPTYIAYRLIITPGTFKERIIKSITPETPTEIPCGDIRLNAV
- experiment.notes: Inhibitory action on human serotonin transporter ([3H]-5-hydroxytryptamine uptake in CHO cells)
- Assay type: cell-based
- condition.label: CHO, compound 1 μM; relative to inhibitory activity of 10 μM Paroxetine as 100%; read-out: inhibitory rate (%)
- Description: Human serotonin transporter cDNA was amplified from human brain cDNA library by PCR, and inserted into pCRII-TOPO vector (manufactured by Invitrogen). […] Then, an assay buffer (126 mM NaCl, 4.95 mM KCl, 1.26 mM KH2PO4, 1.26 mM MgSO4, 10 mM HEPES, 2.32 mM CaCl2, 5.52 mM Glucose, 0.5% BSA) was prepared, the medium in the cell plate was removed and the assay buffer was added by 80 μL. […] The radioactivity was measured by TopCount (PerkinElmer). […]
Counter-ions that a name gives are not always drawn.
Rule: inhibition at 1 µM of 80% or more gives condition met; anything lower gives condition not met.

>  <compound>
OC[C@@H](O)[C@@H]1OCCNC[C@H]1c1ccc(Cl)c(Cl)c1 [Example 46, monohydrochloride]

>  <classification>
condition not met

$$$$

// inclusive: inhibition at 1 µM at least 80%? input: O=c1[nH]c(-c2cccnc2O[C@@H]2CNCCO[C@H]2c2ccc(Cl)c(F)c2)no1 [Example 556, monohydrochloride]
condition not met

// inclusive: inhibition at 1 µM at least 80%? input: O=c1[nH]c(-c2cccn(C[C@@H]3CNCCO[C@H]3c3ccc(Cl)c(F)c3)c2=O)no1 [Example 43, monohydrochloride]
condition not met

// inclusive: inhibition at 1 µM at least 80%? input: Cc1cc(C(=O)O)nn1C[C@@H]1CNCCO[C@H]1c1ccc(Cl)c(Cl)c1 [Example 187, monohydrochloride]
condition met

// inclusive: inhibition at 1 µM at least 80%? input: Cc1cc(C2OCCNCC2CO)ccc1Cl (centres unmarked) [Example 401]
condition not met

// inclusive: inhibition at 1 µM at least 80%? input: OC[C@@H]1OCCNC[C@@H]1c1ccc(Cl)c(Cl)c1 [Example 448, monohydrochloride]
condition not met

// inclusive: inhibition at 1 µM at least 80%? input: O=C1CN([C@@H]2CNCCO[C@H]2c2ccc(Cl)c(Cl)c2)C(=O)N1 [Example 276, monohydrochloride]
condition met

// inclusive: inhibition at 1 µM at least 80%? input: O[C@@H]1CNCCO[C@H]1c1ccc(Cl)c(F)c1 [Example 552, monohydrochloride]
condition not met

// inclusive: inhibition at 1 µM at least 80%? input: OC[C@@H]1CNCCO[C@H]1c1ccc(Cl)c(F)c1 [Example 301, monohydrochloride]
condition not met

// inclusive: inhibition at 1 µM at least 80%? input: Cc1nnc(-c2cccnc2O[C@@H]2CNCCO[C@H]2c2ccc(Cl)c(F)c2)[nH]1 [Example 568, monohydrochloride]
condition met

// inclusive: inhibition at 1 µM at least 80%? input: OC[C@H]1CNCCO[C@@H]1c1cc2ccccc2s1 (racemic) [Example 410, monohydrochloride]
condition met

// inclusive: inhibition at 1 µM at least 80%? input: CS(=O)(=O)NC[C@@]1(c2ccc(Cl)c(Cl)c2)CCNCCO1 [Example 432, monohydrochloride]
condition met

----------
- tgt: human serotonin transporter (Homo sapiens, UniProt P31645)
- Construct: expressed in transfected cells
- experiment.notes: Inhibitory action on human serotonin transporter ([3H]-5-hydroxytryptamine uptake in CHO cells)
- Format: cell-based
- condition.label: CHO, compound 1 μM; relative to inhibitory activity of 10 μM Paroxetine as 100%; read-out: inhibitory rate (%)
- Protocol: Human serotonin transporter cDNA was amplified from human brain cDNA library by PCR, and inserted into pCRII-TOPO vector (manufactured by Invitrogen). […] Then, an assay buffer (126 mM NaCl, 4.95 mM KCl, 1.26 mM KH2PO4, 1.26 mM MgSO4, 10 mM HEPES, 2.32 mM CaCl2, 5.52 mM Glucose, 0.5% BSA) was prepared, the medium in the cell plate was removed and the assay buffer was added by 80 μL. […] The radioactivity was measured by TopCount (PerkinElmer). […]
Where a name gives a salt, the structure may show the parent alone.
inhibition at 1 µM overview
Express your answer in %, writing the number without its unit.

>  <compound>
OC[C@H]1OCCNC[C@H]1c1ccc(Cl)c(Cl)c1 (racemic) [Example 25, monohydrochloride]

>  <value.units>
%

>  <inhibition at 1 µM>
29

$$$$
>  <compound>
OCCOC[C@H]1OCCNC[C@@H]1c1ccc(Cl)c(Cl)c1 (racemic) [Example 495, monohydrochloride]

>  <value.units>
%

>  <inhibition at 1 µM>
59

$$$$
>  <compound>
CC(C)OCC(=O)NC[C@@H]1CNCCO[C@H]1c1ccc(Cl)c(F)c1 [Example 41, monohydrochloride]

>  <value.units>
%

>  <inhibition at 1 µM>
70

$$$$
>  <compound>
NS(=O)(=O)NC[C@@H]1CNCCO[C@H]1c1ccc(Cl)c(Cl)c1 [Example 35, monohydrochloride]

>  <value.units>
%

>  <inhibition at 1 µM>
86

$$$$

Okay, next one:
# query: inhibition at 1 µM of entry CS(=O)(=O)C[C@H]1CNCCO[C@@H]1c1ccc(Cl)c(Cl)c1 [Example 93, monohydrochloride]
97

----------
- tgt: human serotonin transporter (Homo sapiens, UniProt P31645)
- Construct: expressed in transfected cells
- experiment.notes: Inhibitory action on human serotonin transporter ([3H]-5-hydroxytryptamine uptake in CHO cells)
- Assay type: cell-based
- condition.label: CHO, compound 1 μM; relative to inhibitory activity of 10 μM Paroxetine as 100%; read-out: inhibitory rate (%)
Where a name gives a salt, the structure may show the parent alone.
Rule: inhibition at 1 µM of 90% or more gives condition met; anything lower gives condition not met.

As a guide, the following entries are already answered.
>  <molecule>
CS(=O)(=O)NC[C@H]1CNCCO[C@@H]1c1ccc(F)c(Cl)c1 (racemic) [Example 293, monohydrochloride]

>  <tgt>
human serotonin transporter (Homo sapiens, UniProt P31645)

>  <classification>
condition not met

$$$$
>  <molecule>
CS(=O)(=O)N[C@@H]1CNCCO[C@@H]1c1ccc(Cl)c(Cl)c1 (racemic) [Example 63, monohydrochloride]

>  <tgt>
human serotonin transporter (Homo sapiens, UniProt P31645)

>  <classification>
condition met

$$$$
>  <molecule>
NS(=O)(=O)N[C@@H]1CNCCO[C@H]1c1ccc(Cl)c(Cl)c1 [Example 37, monohydrochloride]

>  <tgt>
human serotonin transporter (Homo sapiens, UniProt P31645)

>  <classification>
condition not met

$$$$
>  <molecule>
CS(=O)(=O)C[C@@H]1CNCCO[C@H]1c1ccc(Cl)c(Cl)c1 [Example 92, monohydrochloride]

>  <tgt>
human serotonin transporter (Homo sapiens, UniProt P31645)

>  <classification>
condition met

$$$$
>  <molecule>
O=C1CNC(=O)N1C[C@@]1(c2ccc(Cl)c(Cl)c2)CCNCCO1 [Example 439, monohydrochloride]

>  <tgt>
human serotonin transporter (Homo sapiens, UniProt P31645)

>  <classification>
condition not met

$$$$

// inclusive: inhibition at 1 µM at least 90%? input: CCOC(=O)[C@H]1NCCOC[C@@H]1c1ccc(Cl)c(Cl)c1 (racemic) [Example 412, monohydrochloride]
condition not met

// inclusive: inhibition at 1 µM at least 90%? input: O=c1[nH]c(-c2ccnn(C[C@@H]3CNCCO[C@H]3c3ccc(Cl)c(Cl)c3)c2=O)no1 [Example 209, monohydrochloride]
condition met

// inclusive: inhibition at 1 µM at least 90%? input: O=c1[nH]c(-c2csc(C[C@@H]3CNCCO[C@H]3c3ccc(Cl)c(Cl)c3)n2)no1 [Example 199, monohydrochloride]
condition met

// inclusive: inhibition at 1 µM at least 90%? input: O=c1nc(-c2ccccc2S(=O)(=O)C[C@@H]2CNCCO[C@H]2c2ccc(Cl)c(Cl)c2)[nH]o1 [Example 167, monohydrochloride]
condition met

----------
inhibition at 1 µM overview
- tgt: human serotonin transporter (Homo sapiens, UniProt P31645)
- Construct: expressed in transfected cells
- experiment.notes: Inhibitory action on human serotonin transporter ([3H]-5-hydroxytryptamine uptake in CHO cells)
- Type: cell-based
- condition.label: CHO, compound 1 μM; relative to inhibitory activity of 10 μM Paroxetine as 100%; read-out: inhibitory rate (%)
Where a name gives a salt, the structure may show the parent alone.
Express your answer in %, writing the number without its unit.

Illustrative cases are given below, each with its answer.
>  <compound>
CS(=O)(=O)NC[C@H]1OCCNC[C@H]1c1ccc(Cl)c(Cl)c1 [Example 467, monohydrochloride]

>  <tgt>
human serotonin transporter (Homo sapiens, UniProt P31645)

>  <quantitative.readout>
38

$$$$
>  <compound>
OC[C@@]1(c2ccc(Cl)c(Cl)c2)CCNCCO1 [Example 47, monohydrochloride]

>  <tgt>
human serotonin transporter (Homo sapiens, UniProt P31645)

>  <quantitative.readout>
82

$$$$

# query: inhibition at 1 µM of entry O=C1NCCCN1C[C@@H]1CNCCO[C@H]1c1ccc(Cl)c(F)c1 [Example 372, monohydrochloride]
98
